Target: T1, CD30 fused to the Fc region of IgG1 (R&D Systems) (UniProt P28908 19-379)
T1 sequence (looked up): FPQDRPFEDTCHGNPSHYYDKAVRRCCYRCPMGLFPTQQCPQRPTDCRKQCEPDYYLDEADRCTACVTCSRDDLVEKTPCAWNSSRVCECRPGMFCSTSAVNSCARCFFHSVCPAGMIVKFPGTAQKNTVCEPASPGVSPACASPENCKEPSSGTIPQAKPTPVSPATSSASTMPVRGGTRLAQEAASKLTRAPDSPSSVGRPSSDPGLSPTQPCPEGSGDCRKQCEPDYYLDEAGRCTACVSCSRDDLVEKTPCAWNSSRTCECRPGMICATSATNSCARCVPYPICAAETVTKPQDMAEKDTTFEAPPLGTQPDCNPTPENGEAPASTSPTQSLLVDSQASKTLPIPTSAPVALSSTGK
Experiment: SPR, CD30-Fc on Protein A chip
Kind request: treat 0.7 fold as inclusive, so Fold KD vs WT at 0.7 fold or higher is rule met, anything lower is rule not met.

binder	class label
AC10 H0/L2 full length antibody (antibody, V domains shown) VH: QIQLQQSGPEVVKPGASVKISCKASGYTFTDYYITWVKQKPGQGLEWIGWIYPGSGNTKYNEKFKGKATLTVDTSSSTAFMQLSSLTSEDTAVYFCANYGNYWFAYWGQGTQVTVSA VL: DIVLTQSPSSLSASVGDRVTITCRASQSVDFDGDSYMNWYQQKPGQPPKVLIYAASNLESGIPARFSGSGSGTDFTLTISSLQPEDFATYYCQQSNEDPWTFGGGTKVEIK	rule met
AC10 H2/L1 full length antibody (antibody, V domains shown) VH: QIQLVESGGGLVKPGGSLRLSCAASGYTFTDYYITWVRQAPGQGLEWMGWIYPGSGNTKYNEKFQGRVTMTVDTSTSTAYMELSSLRSEDTAVYFCANYGNYWFAYWGQGTLVTVSS VL: DIVLTQSPATLSLSPGERATLSCRASQSVDFDGDSYMNWYQQKPGQPPKVLIYAASNLESGIPARFSGSGSGTDFTLTISSLQPEDFATYYCQQSNEDPWTFGGGTKVEIK	rule not met
AC10 H1/L1 full length antibody (antibody, V domains shown) VH: QIQLVQSGPEVKKPGASVKVSCKASGYTFTDYYITWVRQAPGQGLEWMGWIYPGSGNTKYNEKFQGRVTITVDTSASTAYMELSSLRSEDTAVYFCANYGNYWFAYWGQGTLVTVSS VL: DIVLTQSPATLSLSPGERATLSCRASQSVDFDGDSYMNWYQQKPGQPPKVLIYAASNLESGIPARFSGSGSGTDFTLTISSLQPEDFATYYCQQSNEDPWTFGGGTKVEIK	rule not met
AC10 H0/L1 full length antibody (antibody, V domains shown) VH: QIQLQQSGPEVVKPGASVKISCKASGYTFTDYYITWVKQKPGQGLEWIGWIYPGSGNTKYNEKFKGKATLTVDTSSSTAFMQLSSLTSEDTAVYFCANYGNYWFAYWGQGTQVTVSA VL: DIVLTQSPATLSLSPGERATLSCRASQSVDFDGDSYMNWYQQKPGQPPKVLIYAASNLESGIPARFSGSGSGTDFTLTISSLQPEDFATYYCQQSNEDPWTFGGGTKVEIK	rule met
AC10 H2/L3 full length antibody (antibody, V domains shown) VH: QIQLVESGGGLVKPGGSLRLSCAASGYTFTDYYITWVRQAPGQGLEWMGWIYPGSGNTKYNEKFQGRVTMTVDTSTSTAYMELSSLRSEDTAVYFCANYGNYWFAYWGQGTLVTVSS VL: DIVLTQSPDSLAVSLGERATINCKASQSVDFDGDSYMNWYQQKPGQPPKVLIYAASNLESGIPARFSGSGSGTDFTLTINSLEAEDAATYYCQQSNEDPWTFGGGTKVEIK	rule not met
AC10 H3/L0 full length antibody (antibody, V domains shown) VH: QIQLVQSGPEVKKPGASVKVSCKASGYTFTDYYITWVRQAPGQGLEWMGWIYPGSGNTKYNEKFQGRFVFSVDTSASTAYLQISSLKAEDTAVYFCANYGNYWFAYWGQGTLVTVSS VL: DIVLTQSPASLAVSLGQRATISCKASQSVDFDGDSYMNWYQQKPGQPPKVLIYAASNLESGIPARFSGSGSGTDFTLNIHPVEEEDAATYYCQQSNEDPWTFGGGTKLEIK	rule met
AC10 H1/L3 full length antibody (antibody, V domains shown) VH: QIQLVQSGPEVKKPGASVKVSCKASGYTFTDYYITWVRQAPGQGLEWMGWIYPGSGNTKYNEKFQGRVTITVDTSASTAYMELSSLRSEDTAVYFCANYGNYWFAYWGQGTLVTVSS VL: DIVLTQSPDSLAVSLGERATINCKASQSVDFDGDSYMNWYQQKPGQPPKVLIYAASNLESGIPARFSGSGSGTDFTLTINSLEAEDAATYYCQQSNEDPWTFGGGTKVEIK	rule not met
AC10 H1/L2 full length antibody (antibody, V domains shown) VH: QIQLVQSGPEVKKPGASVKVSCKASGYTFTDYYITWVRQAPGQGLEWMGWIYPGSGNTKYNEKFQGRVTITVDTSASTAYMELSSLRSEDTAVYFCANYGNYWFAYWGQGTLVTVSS VL: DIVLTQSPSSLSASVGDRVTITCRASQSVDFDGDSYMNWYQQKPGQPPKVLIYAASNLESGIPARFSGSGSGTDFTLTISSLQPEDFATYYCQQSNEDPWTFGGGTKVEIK	rule not met
AC10 H2/L0 full length antibody (antibody, V domains shown) VH: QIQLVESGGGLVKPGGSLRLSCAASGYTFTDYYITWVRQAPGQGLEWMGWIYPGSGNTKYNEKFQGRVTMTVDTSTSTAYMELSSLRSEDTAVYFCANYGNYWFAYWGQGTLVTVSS VL: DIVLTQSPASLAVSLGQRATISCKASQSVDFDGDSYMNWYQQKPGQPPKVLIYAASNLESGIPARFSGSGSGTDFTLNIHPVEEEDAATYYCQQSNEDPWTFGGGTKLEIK	rule not met
AC10 H3/L1 full length antibody (antibody, V domains shown) VH: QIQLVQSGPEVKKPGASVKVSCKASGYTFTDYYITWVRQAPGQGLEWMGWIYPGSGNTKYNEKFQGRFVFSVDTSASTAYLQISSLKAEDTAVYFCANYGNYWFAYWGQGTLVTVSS VL: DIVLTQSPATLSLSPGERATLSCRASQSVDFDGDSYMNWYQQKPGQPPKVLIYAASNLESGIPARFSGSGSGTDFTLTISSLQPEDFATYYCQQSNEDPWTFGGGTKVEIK	rule met

Provenance of the data: patent US7657380
